B1: PCDHGA10 (parent)
chain: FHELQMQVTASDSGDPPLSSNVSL

- Variants of: B1
- assay-overview: protein stability index of a GFP-peptide fusion (GPS, HEK-293T) (PSI 1-6); higher = more stable;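 note: lentivirally expressed fusions sorted by FACS into six bins by GFP to DsRed ratio, PSI derived from sequencing read proportions per bin multiplied by bin number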
- measurement-setup: c terminus: a fixed tail appended
Rule: protein stability index of 2 or more gives condition met; anything lower gives condition not met.

- N21L: condition met
- S13D: condition met
- A10C: condition not met

Attention now shifts to the item below.
Threshold query (protein stability index >= 2) on S13R condition met
